assay: Inhibition of NF-kappaB activation
measureName: IC50 (µM)

>>> print(df.to_string())
                            smilesstructure  measurename  relationaloperator    val
0  Clc1ccc(CCNc2ncnc3ccc(Oc4ccccc4)cc23)cc1         IC50                   =   7.34
1          Oc1ccc2ncnc(NCCc3ccc(Cl)cc3)c2c1         IC50                   =  0.313
2  Nc1ccc2ncnc(NCCc3ccc(OCc4ccc5ccccc5n4)cc3)c2c1         IC50                   =  0.093
3              Nc1ccc2ncnc(NCCN3CCCCC3)c2c1         IC50                   >     10
4              Nc1ccc2ncnc(NCCc3cccnc3)c2c1         IC50                   =   8.27
5       O=S(=O)(Nc1cccc2cccnc12)c1ccc(Br)s1         IC50                   =    1.1

---

test: Inhibition of NF-kappaB activation
pIC50: −log10 of the molar value.
molecules and their reported pIC50
measureName: pIC50

                            smilesstructure  measurename   val
0       C#CCOc1ccc(CCNc2ncnc3ccc(N)cc23)cc1        pIC50  7.40
1  O=[N+]([O-])c1ccc(S(=O)(=O)Nc2cccc3cccnc23)cc1        pIC50  5.82
2              Nc1ccc2ncnc(NCCC3CCCCC3)c2c1        pIC50  6.16
3       O=S1(=O)Nc2c(ccc3cccnc23)-c2ccccc21        pIC50  6.00
4            Nc1ccc2ncnc(NCCc3ccccc3Cl)c2c1        pIC50  6.60
5          Cc1ccc2ncnc(NCCc3ccc(Cl)cc3)c2c1        pIC50  6.14

---

experiment: Inhibition of NF-kappaB activation
Where a SMILES comes first, the peptide text is derived from it. The star is where a group is joined. Cbz = O=C(OCc1ccccc1)*
molecules and their reported IC50
measureName: IC50 (nM)

>>> print(df.to_string())
                                    molecule  relationaloperator    val
 0         Clc1ccc(CCNc2ncnc3ccc(Br)cc23)cc1                   =    851
 1  O=[N+]([O-])c1cc(C(F)(F)F)ccc1S(=O)(=O)Nc1cccc2cccnc12                   =   3700
 2  Cc1ccc2cccc(NS(=O)(=O)c3ccc(C(F)(F)F)cc3[N+](=O)[O-])c2n1                   =   1100
 3             Clc1ccc(CCNc2nncc3ccccc23)cc1                   >  10000
 4              Nc1ccc2ncnc(NCCc3ccccc3)c2c1                   =    311
 5       CCCCOc1ccc(CCNc2ncnc3ccc(N)cc23)cc1                   =     11
 6  COc1ccc([C@@]23Oc4cc(OC)cc(OC)c4[C@]2(O)[C@H](O)[C@H](C(N)=O)[C@H]3c2ccccc2)cc1 [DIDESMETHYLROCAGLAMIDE]                   =     44
 7              Clc1ccc(CNc2ncnc3ccccc23)cc1                   =   1830
 8  COc1cc(NS(=O)(=O)c2ccc(C)cc2N)c2ncccc2c1                   =   1000
 9            COc1ccccc1CCNc1ncnc2ccc(N)cc12                   =    155
10  Cc1ccc2ccc3c(c2n1)NS(=O)(=O)c1ccc(C(F)(F)F)cc1-3                   =   1200
11      O=C1c2ccc(O)cc2C(=O)N1c1c(Br)cccc1Br                   =    430
12             Clc1ccc(CCNc2ccnc3ccccc23)cc1                   =   1390
13  O=[N+]([O-])c1cc2c(NCCc3ccc(Cl)cc3)ncnc2cc1Cl                   =   9060
14          Nc1ccc2c(NCCc3ccc(Cl)cc3)ncnc2c1                   =   2200
15              Nc1ccc2ncnc(NCCN3CCOCC3)c2c1                   >  10000
16   Nc1ccc2ncnc(NCCc3ccc(Oc4ccccc4)cc3)c2c1                   =     11
17     COc1ccc2c(c1)-c1ccc3cccnc3c1NS2(=O)=O                   =   1000
18       O=S(=O)(Nc1cccc2cccnc12)c1ccc(Cl)s1                   =   1300
19  Cc1ccc2cccc(NS(=O)(=O)c3ccccc3[N+](=O)[O-])c2n1                   =   3800
20             Clc1ccc(CCNc2nccc3ccccc23)cc1                   >  10000
21         Clc1ccc(CCNc2ncnc3ccc(Cl)cc23)cc1                   =    344
22          COc1cccc(CCNc2ncnc3ccc(N)cc23)c1                   =    210
23  CC(C)c1cccc(C(C)C)c1N1C(=O)c2ccc(O)cc2C1=O                   =    530
24         CCOc1ccc(CCNc2ncnc3ccc(N)cc23)cc1                   =     21
25  COc1cc2ccc(C)nc2c2c1-c1cc(C)ccc1S(=O)(=O)N2                   =    900
26  CC(C)C[C@@H](C=O)NC(=O)[C@H](CC(C)C)NC(=O)[C@H](CC(C)C)NC(=O)OCc1ccccc1 [MG-132] (Cbz-Leu-Leu-Leu-aldehyde)                   =    715
27              c1ccc(CCCNc2ncnc3ccccc23)cc1                   =   2380
28        CCCOc1ccc(CCNc2ncnc3ccc(N)cc23)cc1                   =     20
29        Nc1cc2c(NCCc3ccc(Cl)cc3)ncnc2cc1Cl                   =    429
30      NC(=O)c1ccc(CCNc2ncnc3ccc(N)cc23)cc1                   =   7330
31          Nc1ccc2ncnc(NCCc3cccc(Cl)c3)c2c1                   =    389
32      CCCCCOc1ccc(CCNc2ncnc3ccc(N)cc23)cc1                   =      2
33  Nc1ccc2ncnc(NCCc3ccc(S(N)(=O)=O)cc3)c2c1                   >  10000
34  COc1ccc([C@@]23Oc4cc(OC)cc(OC)c4[C@]2(O)[C@H](O)C[C@H]3c2ccccc2)cc1                   =    499
35  COC(=O)C1[C@@H](O)[C@@]2(O)c3c(OC)cc(OC)cc3O[C@@]2(c2ccc3c(c2)OCO3)[C@@H]1c1ccccc1 (stereo partly specified)                   =    319
36               Nc1ccc2ncnc(NCCN3CCCC3)c2c1                   =   3690
37  CC(C)c1cccc(C(C)C)c1N1C(=O)c2ccc(N)cc2C1=O                   =  29500
38  Cc1ccc2cccc(NS(=O)(=O)c3cccc([N+](=O)[O-])c3)c2n1                   =    900
39  Cc1csc2ncnc(NC3Cc4ccc(C(=O)N5CCOCC5)cc4C3)c12 (stereo unspecified)                   =     38
40               Clc1ccc(Nc2ncnc3ccccc23)cc1                   >  10000
41  COc1cc2cccnc2c2c1-c1cc(C)ccc1S(=O)(=O)N2                   =   1200
42  Cc1ccc([N+](=O)[O-])cc1S(=O)(=O)Nc1cccc2cccnc12                   =   1600
43  COc1ccc2c(c1)-c1ccc3ccc(C)nc3c1NS2(=O)=O                   =   2500

The measurements presented in this section are drawn from ChEMBL document CHEMBL1156034.
